Experiment: Cytotoxicity (cell survival, TC50) in the HBV-DNA experiment
Format: cell-based
Conditions: human, HepG2 2.2.15 cells, day 8, concentration at which cell survival is 50% of control
No end group written: not given here.
MEASUREMENT_KIND: CC50 at 192 h

- IVTNTT [CMS017]: 1330 µg/mL
